System: striatal dopamine receptors
MEASUREMENT_DESCRIPTION: animal or person
Format: in vivo
SETTINGS: Rattus norvegicus, sc, read-out: EC50, rotation behavior
Structures can show the parent of a compound that is named as a salt.
Labelling: ED50 reported below 0.1 µmol/kg becomes TRUE; at or above becomes FALSE.

COMPOUND | GROUP
CC(C)(C)c1cc2c(s1)CN[C@H]1CCc3cc(O)c(O)cc3[C@H]21 (single isomer, unassigned) [Example 24] | TRUE
CC(C)c1cc2c(s1)[C@@H]1c3cc(O)c(O)cc3CC[C@H]1NC2 (relative stereo) [Example 34, trifluoroacetate salt] | TRUE
CCCc1cc2c(s1)CNC1CCc3cc(OC(C)=O)c(OC(C)=O)cc3C21 (single isomer, unassigned; (-)) [Example 48, hydrochloride] | TRUE
CCCc1cc2c(s1)CN[C@H]1CCc3cc(O)c(O)cc3[C@H]21 (single isomer, unassigned) [Example 20, hydrobromide] | FALSE
Oc1cc2c(cc1O)[C@H]1c3sc(C(F)(F)F)nc3CN[C@@H]1CC2 (relative stereo) [Example 28] | FALSE
CC(C)(C)c1cc2c(s1)CN[C@H]1CCc3cc(O)c(O)cc3[C@H]21 (relative stereo) [Example 6, hydrobromide] | FALSE
CCc1cc2c(o1)[C@@H]1c3cc(O)c(O)cc3CC[C@H]1NC2 (relative stereo) [Example 55, hydrochloride] | FALSE
CCCc1cc2c(o1)CN[C@@H]1CCc3cc(O)c(O)cc3[C@@H]21 (relative stereo) [Example 41] | TRUE
CCCc1cc2c(s1)CN[C@H]1CCc3cc(O)c(O)cc3[C@H]21 (relative stereo) [Example 5, hydrobromide] | FALSE
Cc1cc2c(s1)CN[C@H]1CCc3cc(O)c(O)cc3[C@H]21 (relative stereo) [Example 22, hydrobromide] | FALSE
CCCc1nc2c(s1)CN[C@@H]1CCc3cc(O)c(O)cc3[C@@H]21 (relative stereo) [Example 54, dihydrobromide] | FALSE
CCc1cc2c(s1)CN[C@H]1CCc3cc(O)c(O)cc3[C@H]21 (relative stereo) [Example 3, hydrobromide] | TRUE
CCCc1csc2c1CN[C@@H]1CCc3cc(O)c(O)cc3[C@@H]21 (relative stereo) [Example 52, hydrochloride] | FALSE

----------
ASSAY_TARGET: dopamine D-1 receptor (Rattus norvegicus, UniProt P18901)
Sequence (P18901 whole entry): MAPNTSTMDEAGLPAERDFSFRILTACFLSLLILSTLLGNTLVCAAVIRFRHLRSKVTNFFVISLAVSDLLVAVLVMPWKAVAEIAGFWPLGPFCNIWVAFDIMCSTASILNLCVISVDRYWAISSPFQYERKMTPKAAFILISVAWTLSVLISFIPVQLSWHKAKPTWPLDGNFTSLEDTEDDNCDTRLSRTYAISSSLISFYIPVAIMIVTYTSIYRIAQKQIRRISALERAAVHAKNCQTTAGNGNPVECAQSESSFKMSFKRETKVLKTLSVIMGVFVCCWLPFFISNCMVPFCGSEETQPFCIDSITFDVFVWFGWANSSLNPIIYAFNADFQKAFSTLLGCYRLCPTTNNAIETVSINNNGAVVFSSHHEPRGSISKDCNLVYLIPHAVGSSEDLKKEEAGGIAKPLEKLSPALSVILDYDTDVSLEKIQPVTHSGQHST
MEASUREMENT_DESCRIPTION: biochemical
Structures can show the parent of a compound that is named as a salt.
Listing: Ki of selected molecules
ASSAY_METRIC: Ki (nM)

MOLECULE | RELATION_OPERATOR | RECORDED_RESULT
CCCc1nc2c(s1)[C@H]1c3cc(O)c(O)cc3CC[C@@H]1NC2 (relative stereo) [Example 27, dihydrobromide] | = | 11
Cc1ccc(-c2cc3c(s2)CNC2CCc4cc(O)c(O)cc4C32)cc1 (stereo not drawn) [Example 46, hydrobromide] | > | 5000
Oc1cc2c(cc1O)[C@H]1c3cc(CC4CCCC4)sc3CN[C@@H]1CC2 (relative stereo) [Example 39, hydrobromide] | = | 450
CCCc1cc2c(o1)CN[C@@H]1CCc3cc(O)c(O)cc3[C@@H]21 (relative stereo) | = | 21
CC(C)c1cc2c(s1)[C@@H]1c3cc(O)c(O)cc3CC[C@H]1NC2 (relative stereo) [Example 34, trifluoroacetate salt] | = | 4
Oc1cc2c(cc1O)[C@H]1c3sc(C(F)(F)F)nc3CN[C@@H]1CC2 (relative stereo) | = | 52
Oc1cc2c(cc1O)[C@H]1c3cc(-c4cccs4)sc3CN[C@@H]1CC2 (relative stereo) [Example 37, hydrobromide] | = | 710
CCCCCCc1cc2c(s1)CN[C@@H]1CCc3cc(O)c(O)cc3[C@@H]21 (relative stereo) [Example 38, TFA salt] | = | 1430
Oc1cc2c(cc1O)[C@H]1c3cc(-c4ccccc4)oc3CN[C@@H]1CC2 (relative stereo) [Example 42, hydrochloride] | = | 453
CCc1cc2c(o1)[C@@H]1c3cc(O)c(O)cc3CC[C@H]1NC2 (relative stereo) [Example 55, hydrochloride] | = | 10
CC(C)CCc1cc2c(s1)[C@@H]1c3cc(O)c(O)cc3CC[C@H]1NC2 (relative stereo) [Example 30, hydrobromide] | = | 62
Oc1cc2c(cc1O)[C@@H]1c3sc(-c4ccccc4)cc3CN[C@H]1CC2 (relative stereo) [Example 19, hydrobromide] | = | 360

----------
Listing: ED50 of selected molecules
Tested on: striatal dopamine receptors
MEASUREMENT_DESCRIPTION: animal or person
Assay type: in vivo
SETTINGS: Rattus norvegicus, sc, read-out: EC50, rotation behavior
Where a name gives a salt, the structure may show the parent alone.

MOLECULE | ASSAY_TARGET | ED50
CC(C)CCc1cc2c(s1)[C@@H]1c3cc(O)c(O)cc3CC[C@H]1NC2 (relative stereo) [Example 30, hydrobromide] | striatal dopamine receptors | > 1 µmol/kg
CCCc1nc2c(s1)[C@H]1c3cc(O)c(O)cc3CC[C@@H]1NC2 (relative stereo) [Example 27, dihydrobromide] | striatal dopamine receptors | > 1 µmol/kg
CC(C)c1nc2c(o1)[C@@H]1c3cc(O)c(O)cc3CC[C@H]1NC2 (relative stereo) [Example 50, dihydrobromide] | striatal dopamine receptors | > 1 µmol/kg

----------
ASSAY_TARGET: D-1 receptor
MEASUREMENT_DESCRIPTION: Adenylate cyclase assay (agonist activity, cAMP)
Assay type: biochemical, goldfish retina or rat striatum
SETTINGS: goldfish retina or rat striatum homogenate
pEC50: −log10 of the molar value. Structures can show the parent of a compound that is named as a salt.

MOLECULE | pEC50
Oc1cc2c(cc1O)[C@H]1c3cc(CC4CCCC4)sc3CN[C@@H]1CC2 (relative stereo) [Example 39, hydrobromide] | 6.96
Oc1cc2c(cc1O)[C@H]1c3cc(-c4cccs4)sc3CN[C@@H]1CC2 (relative stereo) [Example 37, hydrobromide] | 6.48
Oc1cc2c(cc1O)[C@H]1c3sc(C(F)(F)F)nc3CN[C@@H]1CC2 (relative stereo) [Example 28] | 6.69
